system.under.test: Chemerin-like receptor 1 (Homo sapiens)
Sequence (Q99788 whole entry): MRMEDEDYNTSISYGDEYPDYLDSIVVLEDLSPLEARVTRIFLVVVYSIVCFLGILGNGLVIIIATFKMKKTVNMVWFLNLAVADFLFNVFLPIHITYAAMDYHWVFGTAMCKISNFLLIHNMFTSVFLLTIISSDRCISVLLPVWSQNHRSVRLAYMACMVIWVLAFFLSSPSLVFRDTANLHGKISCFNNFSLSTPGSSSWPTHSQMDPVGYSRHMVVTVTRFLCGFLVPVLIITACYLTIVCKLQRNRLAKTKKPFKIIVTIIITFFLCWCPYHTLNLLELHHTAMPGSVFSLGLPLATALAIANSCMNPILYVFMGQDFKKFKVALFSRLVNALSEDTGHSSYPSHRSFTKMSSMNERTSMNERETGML
procedure.summary: Displacement of [125I]-chemerin from ChemR23 (unknown origin) transfected in mouse BaF3 cells after 3 hrs by scintillation counting method
parameter.measured: IC50

Here's what some known entries look like.
• Cc1cccc(C)c1N1CC(C(=O)Nc2ccc(Cl)c(C(F)(F)F)c2)CC1=O (configuration not stated) = 300 to 6000 nM
• Cc1cccc(C)c1N1C[C@@](CN(C)CCCCF)(C(=O)Nc2cc(C(F)(F)F)cc(C(F)(F)F)c2)[C@H](C)C1=O = ≤ 30 nM
• Cc1cccc(C)c1N1C[C@@](CC(C)C)(C(=O)Nc2cc(C(F)(F)F)cc(C(F)(F)F)c2)[C@H](C)C1=O = ≤ 30 nM
• CC[C@@]1(C(=O)Nc2cc(C3CC3)cc(C(F)(F)F)c2)CN(c2c(C)cccc2C)C(=O)[C@H]1C = ≤ 30 nM
• CCN(CC(C)C)C[C@@]1(C(=O)Nc2cc(C(F)(F)F)cc(C(F)(F)F)c2)CN(c2c(C)cccc2C)C(=O)[C@H]1C = ≤ 30 nM

In plain terms, Cc1cc(C)n(C2(C(=O)Nc3cc(C(F)(F)F)cc(C(F)(F)F)c3)CC(=O)N(c3c(C)cccc3C)C2)n1 (configuration not stated) has a documented IC50 of ≤ 30 nM

So, `CCC[C@@]1(C(=O)Nc2cc(C(F)(F)F)cc(C(F)(F)F)c2)CN(c2c(C)cccc2C)C(=O)[C@H]1C` ? Its IC50 was ≤ 30 nM

From: ChEMBL document CHEMBL3879908
